Would you kindly list normalized growth for each of these compounds?
experiment: chemical genetic growth profiling, strain panel (AID 1159580);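 further: tested at 20 µM; growth read once vehicle control cultures reached saturation at 30 °C; 1 = growth at the plate median or of vehicle wells; lower values mean less growth of the strain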; details: S. cerevisiae deletion strains, growth OD, locus YDR054C, strain cdc34, hits give low values
The whole screen tested about 5,500 compounds, of which about 2,000 (36%) were called active. Inconclusive results (about 18%) are left out. This is one part of the list.
One number for each entry.

Consider the following illustrative entries.
compound	measured value
CN1/C(=C/C=C/c2ccc3ccccc3[n+]2C)C=Cc2ccccc21	0.581
OC(COCc1ccccc1)Cn1c2ccccc2c2ccccc21 (stereo not drawn)	0.939

Please give normalized growth for each item listed below.
1. O=C(OCc1ccccc1Br)c1cc([N+](=O)[O-])cc([N+](=O)[O-])c1
2. N#Cc1ccc2[nH]cc(CCN(Cc3ccccc3)Cc3ccccc3)c2c1
3. FC(F)(F)Oc1ccc(OCc2n[nH]c(=S)n2-c2ccc(Cl)cc2)cc1
4. Clc1cccc(Cl)c1C1CC(c2ccccc2)=Nc2ccccc2S1 (stereo not drawn)

Solution:
[0.965, 0.978, 0.989, 0.978]

###

test: chemical genetic growth profiling, strain panel (AID 1159580);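 further: tested at 20 µM; growth read once vehicle control cultures reached saturation at 30 °C; 1 = growth at the plate median or of vehicle wells; lower values mean less growth of the strain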; conditions: S. cerevisiae deletion strains, growth OD, locus YAL021C, strain ccr4, hits give low values
The whole screen tested about 5,500 compounds, of which about 2,000 (36%) were called active. Roughly 18% stayed inconclusive and do not appear here. The list shows a part of the results.
endpoint: normalized growth
Numbers only.

Please give normalized growth for each item listed below.
1. C[C@H]1O[C@@H](O[C@H]2[C@@H](O)C[C@H](O[C@H]3[C@@H](O)C[C@H](O[C@H]4CC[C@]5(C)C6CC[C@]7(C)[C@@H](C8=CC(=O)OC8)CC[C@]7(O)C6CC[C@@H]5C4)O[C@@H]3C)O[C@@H]2C)C[C@H](O)[C@@H]1O (some centres not stated)
2. CC1=CC(=O)C(C(C)C)=CC1=O
3. CC1(C)C(O)CC(=O)C2(C)C1CC(O)C1(C)C2CCC2(C)C(c3ccoc3)OC(=O)C3OC321 (configuration not stated)
4. C[C@@H]1CC[C@@]23CCC4(C)[C@@](C=CC5[C@@]6(C)CCC(=O)C(C)(C)C6CC[C@]54C)(OC2=O)C3[C@H]1C (some centres not stated)
5. CC(=O)O[C@@H]1CC2C(C)(CC[C@H](O)C2(C)C)C2CC[C@]3(C)C(=CC(=O)O[C@H]3c3ccoc3)C21C (some centres not stated)
6. CC(C)=CC1C(CO)C1(C)C (configuration not stated)
7. CC1(C)S[C@@H]2[C@H](NC(=O)C(C(=O)O)c3ccccc3)C(=O)N2[C@H]1C(=O)O (some centres not stated)
8. COC(=O)[C@H]1[C@H]2C[C@H]3c4[nH]c5cc(OC)ccc5c4CCN3C[C@H]2C[C@@H](OC(=O)c2cc(OC)c(OC)c(OC)c2)[C@@H]1OC

Solution:
[0.984, 0.91, 0.99, 0.998, 0.995, 1.01, 0.979, 0.989]

###

test: chemical genetic growth profiling, strain panel (AID 1159580);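 further: tested at 20 µM; growth read once vehicle control cultures reached saturation at 30 °C; 1 = growth at the plate median or of vehicle wells; lower values mean less growth of the strain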; settings: S. cerevisiae deletion strains, growth OD, locus YGR229C, strain SMI1, hits give low values
Among all 5,500 compounds or so, about 2,000 (36%) were called active. Not shown: some 18% with an inconclusive outcome. The list shows a part of the results.
Please assign False whenever normalized growth is at or above 1, and True whenever it is below.

compound	group
Oc1ccc2c3c1OC1[C@@H](O)CC[C@@]4(O)[C@@H](C2)N(CC2CCC2)CC[C@]314 (stereo partly specified)	False

Exercise: Hello, is normalized growth of the following compound strictly smaller than 1? CN(C)/C=C1\CSc2ccc(F)cc2C1=O
Solution: True

Exercise: Subsequent entry: COC1CC(O[C@H]2CC[C@]3(C=O)C4CC[C@]5(C)C(C6=CC(=O)OC6)CC[C@]5(O)C4CC[C@]3(O)C2)OC(C)C1O (stereo partly specified)
Solution: False

Exercise: Subsequent entry: COC(=O)C[C@H]1C(C)(C)[C@@H](O)[C@@H]2CC3=C4CC(O)O[C@@H](c5ccoc5)[C@]4(C)CCC3[C@@]1(C)C2=O (stereo partly specified)
Solution: False
